# systemUnderTest: PIK3CA (Homo sapiens)
# Construct: endogenous in cells
# testMethodNotes: In vitro ELISA target engagement assay for PIK3CA in Jurkat cellular lysate (competition with PIK3CA Biotin Probe)
# testConditions: 1 hour at rt, then 500 nM PIK3CA Biotin Probe, read-out: Elisa Target Engagement Assay (TE50)
pIC50: −log10 of the molar value.
measurementKind: pIC50

Before answering, review these 5 worked examples.
>>> df
                                   molecule  observed
0  C[C@H](/C=C\S(C)(=O)=O)NC(=O)[C@]1(F)CCN(S(=O)(=O)c2cnc(C(F)(F)F)cc2-c2ccccc2Cl)[C@H](C)C1      6.66
1  C[C@@H](NC(=O)C1(F)CCN(S(=O)(=O)c2ccc(C(F)(F)F)cc2-c2ccccc2Cl)CC1)C1=CS(=O)(=O)C1      6.41
2  C[C@H](/C=C\S(C)(=O)=O)NC(=O)C1(F)CCN(S(=O)(=O)c2ccc(Br)cc2-c2ncccc2Cl)CC1      6.47
3  COC[C@H](/C=C\S(C)(=O)=O)NC(=O)C1(F)CCN(S(=O)(=O)c2ccc(Br)cc2-c2ccccc2Cl)CC1      6.39
4  C[C@H](/C=C\S(C)(=O)=O)NC(=O)[C@@]1(F)CCCN(C(=O)[C@H]2CN(CC(F)(F)F)C[C@H]2c2cccc(F)c2F)CC1 (single isomer, unassigned)      6.27

P. COc1ccc(S(=O)(=O)N2CCC(F)(C(=O)N[C@H](C)/C=C/C(=O)N3CC(F)(F)C3)CC2)c(-c2ccccc2Cl)c1
Q. C[C@H](/C=C\S(C)(=O)=O)NC(=O)C1(F)CCN(S(=O)(=O)c2ccc(N3CCCC3)cc2-c2ccccc2Cl)CC1
R. COc1ccc(S(=O)(=O)N2CCC(F)(C(=O)N[C@H](C)/C=C\S(C)(=O)=O)CC2)c(-c2ccccc2C)c1
Incoming: List the 3 entries from lowest pIC50 to highest pIC50 value. When ranking, write the labels in the order the request describes.
Outgoing: Q, P, R
(Q: 6.17, P: 6.42, R: 6.77)

* * *

# systemUnderTest: PIK3CA (Homo sapiens, UniProt P42336)
# Construct: endogenous in cells
# Sequence (P42336 whole entry): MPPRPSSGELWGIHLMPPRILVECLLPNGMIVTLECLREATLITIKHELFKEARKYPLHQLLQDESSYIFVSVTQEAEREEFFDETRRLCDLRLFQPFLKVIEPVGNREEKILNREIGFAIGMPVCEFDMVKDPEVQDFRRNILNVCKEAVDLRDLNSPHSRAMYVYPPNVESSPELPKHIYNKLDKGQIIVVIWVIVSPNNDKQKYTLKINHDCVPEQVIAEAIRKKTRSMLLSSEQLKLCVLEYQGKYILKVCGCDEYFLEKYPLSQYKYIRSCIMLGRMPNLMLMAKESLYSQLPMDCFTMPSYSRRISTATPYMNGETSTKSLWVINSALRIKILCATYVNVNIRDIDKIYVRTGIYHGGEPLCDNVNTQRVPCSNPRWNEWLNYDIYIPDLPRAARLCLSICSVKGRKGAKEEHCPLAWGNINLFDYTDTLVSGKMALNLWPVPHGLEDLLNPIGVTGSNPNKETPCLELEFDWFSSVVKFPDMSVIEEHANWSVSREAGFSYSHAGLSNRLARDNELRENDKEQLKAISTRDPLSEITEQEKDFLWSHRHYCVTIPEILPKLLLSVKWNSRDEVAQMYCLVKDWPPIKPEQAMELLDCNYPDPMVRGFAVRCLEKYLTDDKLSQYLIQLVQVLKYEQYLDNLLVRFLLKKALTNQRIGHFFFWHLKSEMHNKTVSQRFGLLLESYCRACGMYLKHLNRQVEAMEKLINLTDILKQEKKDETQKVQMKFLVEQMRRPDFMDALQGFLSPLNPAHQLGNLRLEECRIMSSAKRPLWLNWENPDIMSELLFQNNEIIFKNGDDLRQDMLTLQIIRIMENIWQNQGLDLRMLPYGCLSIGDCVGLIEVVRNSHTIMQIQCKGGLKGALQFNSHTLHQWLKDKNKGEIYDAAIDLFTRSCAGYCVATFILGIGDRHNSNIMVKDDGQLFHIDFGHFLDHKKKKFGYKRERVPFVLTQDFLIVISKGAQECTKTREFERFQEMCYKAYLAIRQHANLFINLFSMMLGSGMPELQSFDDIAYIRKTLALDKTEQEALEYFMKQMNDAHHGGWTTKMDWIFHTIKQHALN
# Sequence (P27986 whole entry partner): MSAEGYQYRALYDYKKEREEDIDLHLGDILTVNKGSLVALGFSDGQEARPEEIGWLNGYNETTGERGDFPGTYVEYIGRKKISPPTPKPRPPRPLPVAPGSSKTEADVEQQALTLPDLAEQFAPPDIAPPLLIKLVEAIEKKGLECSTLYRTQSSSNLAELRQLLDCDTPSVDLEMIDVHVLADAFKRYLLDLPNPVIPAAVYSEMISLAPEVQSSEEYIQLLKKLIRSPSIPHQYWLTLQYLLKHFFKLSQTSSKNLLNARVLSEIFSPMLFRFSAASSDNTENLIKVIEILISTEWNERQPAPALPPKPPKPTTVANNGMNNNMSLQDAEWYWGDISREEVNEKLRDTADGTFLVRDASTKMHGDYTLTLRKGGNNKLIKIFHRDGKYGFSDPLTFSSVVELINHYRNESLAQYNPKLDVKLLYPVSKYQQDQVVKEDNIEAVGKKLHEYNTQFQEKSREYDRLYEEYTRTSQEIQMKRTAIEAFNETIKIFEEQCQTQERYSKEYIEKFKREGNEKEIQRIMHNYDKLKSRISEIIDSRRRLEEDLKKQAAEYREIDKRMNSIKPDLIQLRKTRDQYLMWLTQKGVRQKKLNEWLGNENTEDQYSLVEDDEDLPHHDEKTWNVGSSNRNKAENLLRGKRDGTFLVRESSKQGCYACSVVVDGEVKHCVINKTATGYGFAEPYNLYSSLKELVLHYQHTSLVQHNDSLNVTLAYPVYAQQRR
# testMethodNotes: In vitro ELISA target engagement assay for PIK3CA in Jurkat cellular lysate (competition with PIK3CA Biotin Probe)
# testConditions: 1 hour at rt, then 500 nM PIK3CA Biotin Probe, read-out: Elisa Target Engagement Assay (TE50)
measurementKind: IC50 (nM)

Before answering, review these 6 worked examples.
molecule	measurementKind	observed
COc1cccc(-c2ccccc2S(=O)(=O)N2CCC(F)(C(=O)N[C@@H](C)/C=C\S(C)(=O)=O)CC2)c1 [Compound 19]	IC50	744
C[C@H](/C=C\S(C)(=O)=O)NC(=O)C1(F)CCN(S(=O)(=O)c2ccc(Br)cc2-c2ccc(F)cc2Cl)CC1 [Compound 50]	IC50	319
C[C@H](/C=C\S(C)(=N)=O)NC(=O)C1(F)CCN(S(=O)(=O)c2ccc(Br)cc2-c2ccccc2Cl)CC1 (mixture of isomers) [Compound 73]	IC50	304
C[C@H](/C=C\S(C)(=O)=O)NC(=O)C1(F)CCN(S(=O)(=O)c2ccc(C(F)(F)F)cc2-c2ccccc2Cl)CC1 [Compound 33]	IC50	158
C[C@H](/C=C\S(C)(=O)=O)NC(=O)[C@@]1(F)CCCN(C(=O)[C@H]2CN(CC(F)(F)F)C[C@H]2c2cccc(F)c2Cl)CC1 (single isomer, unassigned) [Compound 168]	IC50	215
Cc1ccccc1-c1cc(N2CCOCC2)ccc1S(=O)(=O)N1CCC(F)(C(=O)N[C@H](C)/C=C\S(C)(=O)=O)CC1 [Compound 122]	IC50	610

a. COCCc1cccc(-c2cc(Cl)ccc2S(=O)(=O)N2CCC(F)(C(=O)N[C@@H](C)/C=C\S(C)(=O)=O)CC2)c1 [Compound 125]
b. COc1cc(-c2ccccc2Cl)c(S(=O)(=O)N2CCC(F)(C(=O)N[C@H](C)/C=C\S(C)(=O)=O)CC2)cc1OC [Compound 202]
Incoming: Compare IC50: is it lower for a or for b ? // output: label of the selected item
Outgoing: b
(b: 180 nM, a: 610 nM)

1. C=C(C#N)CNC(=O)C1(F)CCN(S(=O)(=O)c2ccc(Br)cc2-c2ccccc2Cl)CC1 [Compound 72]
2. C[C@@H](/C=C\S(C)(=O)=O)NC(=O)C1(F)CCN(S(=O)(=O)c2ccc(Cl)cc2-c2ccccc2Cl)CC1 [Compound 6]
3. C[C@H](/C=C/C(=O)N1CC(F)(F)C1)NC(=O)C1(F)CCN(S(=O)(=O)c2ccc(Br)cc2-c2ccccc2Cl)CC1 [Compound 135]
Incoming: List the 3 entries from lowest IC50 to highest IC50 value. When ranking, write the labels in the order the request describes.
Outgoing: 2, 3, 1

* * *

# systemUnderTest: PIK3CA (Homo sapiens, UniProt P42336)
# Construct: endogenous in cells; host or cells: Jurkat cell lysate
# testMethodNotes: In vitro ELISA target engagement assay for PIK3CA in Jurkat cellular lysate (competition with PIK3CA Biotin Probe)
# Assay type: binding
# testConditions: 1 hour at rt, then 500 nM PIK3CA Biotin Probe, read-out: Elisa Target Engagement Assay (TE50)
measurementKind: IC50 (nM)

Before answering, review these 3 worked examples.
In [3]: df
Out[3]:
                                   compound                        systemundertest  observed
0  C[C@H](/C=C\S(C)(=O)=O)NC(=O)C1(F)CCN(C(=O)[C@H]2CN(CC(F)(F)C(F)(F)F)C[C@H]2c2ccccc2Cl)CC1  PIK3CA (Homo sapiens, UniProt P42336)       910
1  Cc1ccc(-c2cc(Br)ccc2S(=O)(=O)N2CCC(F)(C(=O)N[C@H](C)/C=C\S(C)(=O)=O)CC2)c(Cl)c1  PIK3CA (Homo sapiens, UniProt P42336)       960
2  C[C@H](/C=C\S(=O)(=O)[C@H]1CCN(C)C1)NC(=O)C1(F)CCN(S(=O)(=O)c2ccc(Br)cc2-c2ccccc2Cl)CC1 (single isomer, unassigned)  PIK3CA (Homo sapiens, UniProt P42336)        25

P. COc1ccc(S(=O)(=O)N2CCC[C@](F)(C(=O)N[C@H](C)/C=C\S(C)(=O)=O)CC2)c(-c2ccccc2Cl)c1
Q. Cc1cccc(Cl)c1-c1cc(Br)ccc1S(=O)(=O)N1CCC(F)(C(=O)N[C@H](C)/C=C\S(C)(=O)=O)CC1
Incoming: Compare IC50: is it lower for P or for Q ? // output: label of the selected item
Outgoing: P

I. COc1ccc(S(=O)(=O)N2CCC(F)(C(=O)N[C@@H](C)/C=C\S(C)(=O)=O)CC2)c(-c2ccccc2OC)c1
II. C[C@H](/C=C\S(C)(=O)=O)NC(=O)[C@@]1(F)CCCN(C(=O)[C@H]2CN(CC3(F)CC3)C[C@H]2c2ccccc2Cl)CC1
Incoming: Between I and II , whose recorded IC50 is greater? // output: label of the selected item
Outgoing: I
(I: 970 nM, II: 290 nM)

1. C[C@H]1C[C@](F)(C(=O)N[C@@H]2C=CS(=O)(=O)C2)CCN1C(=O)[C@H]1CN(CC(F)(F)F)C[C@H]1c1cccc(F)c1Cl (single isomer, unassigned)
2. C[C@H](/C=C\S(C)(=O)=O)NC(=O)C1(F)CCN(S(=O)(=O)c2ccc(C#N)cc2-c2ccccc2Cl)CC1
Incoming: Compare IC50: is it lower for 1 or for 2 ? // output: label of the selected item
Outgoing: 2

* * *

# systemUnderTest: PIK3CA_C242 (Homo sapiens)
# Construct: endogenous in cells
# testMethodNotes: Proteomic TE50 (IA-DTB / TMT mass spectrometry) in Jurkat cell lysate
# testConditions: 1 hour at rt, 7-point dose response
measurementKind: IC50 (nM)

Before answering, review these 2 worked examples.
                                smilesinput  measurementkind  unitsymbol  observed
0  COc1ccc(S(=O)(=O)N2CCC(F)(C(=O)N[C@H](C)/C=C\S(C)(=O)=O)CC2)c(-c2ccccc2C)c1             IC50          nM       232
1  Cc1ccccc1-c1cc(OC2CC2)ccc1S(=O)(=O)N1CCC(F)(C(=O)N[C@H](C)/C=C\S(C)(=O)=O)CC1             IC50          nM       310

a. C=Cc1ccc(S(=O)(=O)N2CCC(F)(C(=O)N[C@H](C)/C=C\S(C)(=O)=O)CC2)c(-c2ccccc2C)c1
b. C[C@H](/C=C\S(C)(=O)=O)NC(=O)C1(F)CCN(S(=O)(=O)c2ccc(OC(F)(F)F)cc2-c2ccccc2Cl)CC1
Incoming: Compare IC50: is it lower for a or for b ? // output: label of the selected item
Outgoing: a
(a: 120 nM, b: 700 nM)
